The reported numbers originate from PubChem BioAssay AID2060484.

Tested on: SUM149PT spheroids with HUVEC/MSC, viability
Test summary: Anticancer human tumor SUM149PT cell line growth inhibition [GQUAD];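 further: spheroids exposed to drugs for seven days before readout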;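 on viability, T/C: percent viability relative to DMSO vehicle control taken as 100%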
Recorded conditions: second compound 0.0316 µM; first compound 10 µM; stronger effect = lower value
Measured endpoint: viability, T/C (%)
Answers are plain numbers, in %.

Reference set, count: 2
O=C(c1cc(Cc2n[nH]c(=O)c3ccccc23)ccc1F)N1CCN(C(=O)C2CC2)CC1 + Cc1[nH]c2ccc(F)cc2c1-c1nc2c3cccnc3c3ncccc3c2[nH]1 :: 80.3
COc1cccc2c1C(=O)c1c(O)c3c(c(O)c1C2=O)CC(O)(C(=O)CO)CC3OC1CC(N)C(O)C(C)O1 (stereo not drawn) + Cc1cnc(CNC(=O)c2c(=O)c3ccc(N4CCCN(C)CC4)nc3n3c2sc2ccccc23)cn1 :: 2.54

Next molecule, viability, T/C to be filled in.
Entry Nc1ccn(C2OC(CO)C(O)C2(F)F)c(=O)n1 (stereo not drawn) + Cc1[nH]c2ccc(F)cc2c1-c1nc2c3cccnc3c3ncccc3c2[nH]1 has what viability, T/C?
14.1

###

System: SUM149PT spheroids with HUVEC/MSC, viability
Test summary: Anticancer human tumor SUM149PT cell line growth inhibition [GQUAD];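 further: spheroids exposed to drugs for seven days before readout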;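 on viability, T/C: percent viability relative to DMSO vehicle control taken as 100%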
Recorded conditions: second compound 1 µM; first compound 3.16 µM; stronger effect = lower value
Measured endpoint: viability, T/C

Reference set, count: 2
O=C(NO)c1cnc(N2CCN(S(=O)(=O)c3ccc4ccccc4c3)CC2)nc1 + CN(C)c1ccc(Nc2c3ccc(NC(=O)CCN4CCCC4)cc3nc3cc(NC(=O)CCN4CCCC4)ccc23)cc1 :: 2.23%
CC(C)(O)C1CCC(Nc2ccc3ncc(-c4cccc(C(F)(F)F)c4)n3n2)CC1 (centres undefined) + CN(C)c1ccc(Nc2c3ccc(NC(=O)CCN4CCCC4)cc3nc3cc(NC(=O)CCN4CCCC4)ccc23)cc1 :: 35.9%

For every item below, please supply its viability, T/C.
1. COc1ccc([C@@H](O)c2cc(-c3ncnc4cc(N5CCOCC5)ccc34)c(F)cc2Cl)nn1 + CN(C)c1ccc(Nc2c3ccc(NC(=O)CCN4CCCC4)cc3nc3cc(NC(=O)CCN4CCCC4)ccc23)cc1
2. CC1COCCN1c1cc(-c2ccnn2C)c2ccnc(-c3ccn[nH]3)c2n1 (centres undefined) + Cc1cnc(CNC(=O)c2c(=O)c3ccc(N4CCCN(C)CC4)nc3n3c2sc2ccccc23)cn1

["31.8%", "20.7%"]

###

Assignment: determine reported log10(IC50) for the given compounds.
Test system: SUM149PT spheroids with HUVEC/MSC, viability
Test summary: Anticancer human tumor SUM149PT cell line growth inhibition [GQUAD];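 further: spheroids exposed to drugs for seven days before readout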
Recorded conditions: curve of first compound; second compound 0.316 µM
Note: values are log10 of IC50 expressed in nM.

Reference set, count: 5
Nc1ccn(C2OC(CO)C(O)C2(F)F)c(=O)n1 (stereo not given) + CN(C)c1ccc(Nc2c3ccc(NC(=O)CCN4CCCC4)cc3nc3cc(NC(=O)CCN4CCCC4)ccc23)cc1 :: 2.11
Cc1[nH]c2ccccc2c1CCNCc1ccc(/C=C/C(=O)NO)cc1 + Cc1[nH]c2ccc(F)cc2c1-c1nc2c3cccnc3c3ncccc3c2[nH]1 :: 2.48
O=c1[nH]cc(F)c(=O)[nH]1 + CN(C)c1ccc(Nc2c3ccc(NC(=O)CCN4CCCC4)cc3nc3cc(NC(=O)CCN4CCCC4)ccc23)cc1 :: 3.92
C#Cc1c(F)ccc2cc(O)cc(-c3ncc4c(N5CC6CCC(C5)N6)nc(OCC56CCCN5CC(F)C6)nc4c3F)c12 (stereo not given) + CN(C)c1ccc(Nc2c3ccc(NC(=O)CCN4CCCC4)cc3nc3cc(NC(=O)CCN4CCCC4)ccc23)cc1 :: 3.39
CCc1c2c(nc3ccc(O)cc13)-c1cc3c(c(=O)n1C2)COC(=O)[C@]3(O)CC + CN(C)c1ccc(Nc2c3ccc(NC(=O)CCN4CCCC4)cc3nc3cc(NC(=O)CCN4CCCC4)ccc23)cc1 :: 0.80

Next compound, log10(IC50) to be filled in.
Notebook: pull reported log10(IC50) for SUM149PT spheroids with HUVEC/MSC, viability, entry C#Cc1c(F)ccc2cc(O)cc(-c3ncc4c(N5CC6CCC(C5)N6)nc(OCC56CCCN5CC(F)C6)nc4c3F)c12 (stereo not given) + Cc1cnc(CNC(=O)c2c(=O)c3ccc(N4CCCN(C)CC4)nc3n3c2sc2ccccc23)cn1
1.63
